Recorded values, source PubChem BioAssay AID248.

tested on: L1210 leukemia ip in BDF1 mice, survival T/C; assay: NCI In Vivo Anticancer Drug Screen. Data for tumor model L1210 Leukemia (intraperitoneal) in B6D2F1 (BDF1) mice; conditions: endpoint: mean survival time; dose: 100.0 mg/kg/injection; schedule: Q01DX009 (ip); vehicle: saline with Tween-80; higher = longer survival
Toxic doses and inconclusive results are not listed. Square brackets hold non-standard residues; d marks the D form. Peptide text beside a SMILES is read from it. ξ: configuration not given here. ξF = NC(Cc1ccccc1)C(=O)O
For each record, write down the corresponding T/C.

CC1CCCC(CN=Cc2cc([N+](=O)[O-])ccc2O)[N-]1.CC1CCCC(CN=Cc2cc([N+](=O)[O-])ccc2O)[N-]1.[Ni+2] (centres undefined): 86 % of control
COc1cc(/C=C2/SC(=S)NC2=O)cc(OC)c1OC: 96 % of control
O=C(Nc1cccc(F)c1)N(Cc1ccccc1)c1ccccc1: 91 % of control
CCOC(=O)C(CC(C)C)NC(=O)CCCCSc1ncnc2nc[nH]c12 (centres undefined): 100 % of control

Would you mind listing T/C for each of the following compounds?
1. Cc1ccc(C(=O)C2CC2)cc1C
2. CC(CN1CCN(C)CC1)CN1c2ccccc2Sc2ccc(C(F)(F)F)cc21 (centres undefined)
3. Cc1ccc([N+](=O)[O-])cc1NC(=O)COc1ccc(Cl)cc1
4. CCC(CCC(C)C1CCC2C3CC=C4CC(OC(=O)CCC(=O)O)CCC4(C)C3CCC12C)C(C)C (centres undefined)
5. O=Cc1nccn1Cc1ccccc1
6. CC1CCC(OC(C[N+](=O)[O-])C(Cl)(Cl)Cl)CC1 (centres undefined)
7. NC(Cc1ccc(OCc2ccccc2)cc1)C(=O)O (centres undefined)
8. NC(Cc1ccccc1)C(=O)NCC(=O)NCC(=O)O (stereo not drawn) (H-[ξF]-Gly-Gly-OH)

1: 91 % of control; 2: 96 % of control; 3: 91 % of control; 4: 101 % of control; 5: 100 % of control; 6: 93 % of control; 7: 95 % of control; 8: 107 % of control

Would you mind listing T/C for each of the following compounds?
1. OC(O)C(F)(F)F
2. CC(=O)N(C)c1ccc(S(=O)(=O)Cl)cc1
3. COC(=O)C1=CC2c3ccccc3C1c1ccccc12
4. CC(O)(C#CC(C)(O)c1ccccc1)c1ccccc1 (centres undefined)
5. COc1ccc2c(c1)C(=O)CCC2(C)C
6. CC12CCC3c4ccc(OCC5CO5)cc4CCC3C1CCC2=O (centres undefined)
7. C1=C(c2ccccc2)S/C(=C/c2ccccc2)S1

1. 109 % of control
2. 101 % of control
3. 89 % of control
4. 97 % of control
5. 86 % of control
6. 97 % of control
7. 94 % of control

* * *

test system: L1210 leukemia ip in BDF1 mice, survival T/C; assay: NCI In Vivo Anticancer Drug Screen. Data for tumor model L1210 Leukemia (intraperitoneal) in B6D2F1 (BDF1) mice; settings: endpoint: mean survival time; dose: 200.0 mg/kg/injection; schedule: Q01DX001 (ip); vehicle: carboxymethylcellulose (CMC); higher = longer survival
Toxic doses and inconclusive results are not listed.
outcome measure: T/C

Some entries whose results are on file:
CCCC(=O)c1cc(C)ccc1OC: 106 % of control
COc1cccc(OC)c1CCO: 88 % of control
Cc1cccc(NC(=O)NCCN(C)Cc2ccccc2)c1: 101 % of control
COc1ccccc1CN1CCCN(Cc2ccccc2OC)C1c1cc(OC)c(O)c(OC)c1: 91 % of control
O=C(NCCNC(=O)c1ccncc1)c1ccccc1: 104 % of control

Would you mind listing T/C for each of the following compounds?
1. c1ccc2c(c1)ccc1cc3c4ccccc4c4ccccc4c3cc12
2. C=C1C[C@]23C[C@H](O)[C@]4(O)[C@@]5(C)C[C@H](O)C[C@]46C(C2[C@@H]1[C@@H](OC(=O)/C(C)=C/C)[C@@H](OC(=O)/C(C)=C/C)[C@H]36)N(C)C5 (stereo partly drawn)
3. CCCCCC(=O)Oc1ccccc1C(=O)O
4. CCCCCCCCCCCCCCCCS(=O)(=O)N/N=C/c1ccc(Cl)c([N+](=O)[O-])c1

90 % of control
106 % of control
97 % of control
107 % of control

Would you mind listing T/C for each of the following compounds?
1. Cc1ccc2c(ccc(/C=C/c3ccc(O)c4ncccc34)[n+]2C)c1
2. O=[N+]([O-])c1ccc(S(=O)(=O)C2CCCCC2Cl)c([N+](=O)[O-])c1 (stereo not drawn)
3. CCC/C(=C/c1cc2ccccc2c2ccccc12)[N+](=O)[O-]
4. O=C1c2ccccc2-c2cc([N+](=O)[O-])c(NC(=O)C(Cl)Cl)cc21

1: 124 % of control; 2: 106 % of control; 3: 111 % of control; 4: 107 % of control
